polymerase ribozyme fitness (log ratio) reference
B1: TPR t1 (parent)
chain: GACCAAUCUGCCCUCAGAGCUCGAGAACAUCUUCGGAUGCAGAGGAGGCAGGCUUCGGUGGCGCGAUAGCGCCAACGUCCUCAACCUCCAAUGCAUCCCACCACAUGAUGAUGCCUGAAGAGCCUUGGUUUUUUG

variants of: B1; assay: polymerase ribozyme fitness, log enrichment relative to wild type (log ratio); higher = more active; in vitro selection for triplet polymerase activity
Measured Endpoint: polymerase ribozyme fitness (log ratio)

>>> test_value("C20A G42U G120A")
-3.01
>>> test_value("C94A A105U")
-3.27
>>> test_value("C72U G77U C104A")
-2.21
>>> test_value("U38G A41U C62U")
-3.01
>>> test_value("G52C G127U")
-1.33
>>> test_value("C70A A111C")
-2.46
>>> test_value("G61A G77U")
0.142
>>> test_value("C22A A95U")
-4.83
>>> test_value("C4U U9C A41U")
-0.927
>>> test_value("A29G A46G")
-1.09
>>> test_value("C3A C56A G71A G127U")
-3.57
>>> test_value("C11A A18U A68G G120U")
-4.2
>>> test_value("G17U C49U")
-2.42
>>> test_value("C8G C13U G45C A84C")
0.0875
>>> test_value("C56U A100U U129A")
-1.49
>>> test_value("A5U G71C C102G C114G C115G")
-6.55
>>> test_value("U67C A105U")
-4.9
>>> test_value("A2G U32C C40G C49A")
-1.76
>>> test_value("U126A")
-1.69
>>> test_value("G48U U54G")
-0.42
>>> test_value("C3A C12U U54A G69U G77C")
-3.81
>>> test_value("G39A C56G C94G A111C C114U U130G")
-4.67
>>> test_value("G39C G44U")
-2.29
>>> test_value("C12A C40U A91C")
-3.09
>>> test_value("A2G C114A C124A")
-0.647
>>> test_value("A27U C86G")
-3.66
>>> test_value("A50G A66G C73U C86A C115G")
-4.26
>>> test_value("C101A G110A")
-2.55
>>> test_value("C11G C72A C79U A90G C101G A121C U131A")
0.276
>>> test_value("C40A G45U")
-2.77
>>> test_value("C28U A41C G57C")
-2.88
>>> test_value("C12U G110U")
-0.322
>>> test_value("U112G G117U")
-1.25
>>> test_value("A26U A46C A90G U106A G127C")
-2.32
>>> test_value("C76A C89U U129A")
-2.51
>>> test_value("A37G A83C U125A")
-0.963
>>> test_value("G71U U87A")
-1.3
>>> test_value("C31U C123A")
-4.45
>>> test_value("A5C G69A U129A")
-4.05
>>> test_value("G61A G65A")
-3.94
>>> test_value("U55C C89U C115U")
-3.71
>>> test_value("U59C A83U")
-0.619
>>> test_value("G71A C94G A108G C123A G135U")
-4.8
>>> test_value("U109A U116C")
-7.07
>>> test_value("G71A U87G")
-0.439
>>> test_value("A24C G65A C85A C101G G113C")
-6.86
>>> test_value("C13G C62U U125A")
-1.62
>>> test_value("U87A U130C")
-1.39
>>> test_value("A46G G61C G69U C97A A111U")
-5.77
>>> test_value("A5C U9G C15G A43U A95U G110U")
-4.99
>>> test_value("G44U C70U A111C C124U")
-2.44
>>> test_value("G36U G39C G69A C82A G120U")
-5.69
>>> test_value("G10A A29G A43U C70U C89A")
-4.19
>>> test_value("A84G U109G")
-5.8
>>> test_value("C56U C82U")
-0.0659
>>> test_value("C11U C56U G128C")
-3.11
>>> test_value("G77A C82A U109A")
-4.87
>>> test_value("C3A A5U G36C G47C A75U G77A A105G U106A C123U U130C")
-2.36
>>> test_value("G60C A84U U116C")
-0.854
>>> test_value("C11A G39A U54A C72A")
-1.51
>>> test_value("C53U G110U")
-1.81
>>> test_value("G61C A84U G93C G128A")
-5.12
>>> test_value("C79U G135U")
-0.964
>>> test_value("C4G C64U")
-2.5
>>> test_value("C79G C124G U125A")
-4.24
>>> test_value("C15A G45A C89G G93C")
-4.59
>>> test_value("C12G U21A G77C A84U")
-1.73
>>> test_value("G48A U112A U125G G127C")
-1.12
>>> test_value("C12A G69A A100C A121C")
-3.75
>>> test_value("G17C G61A G120C")
-1.39
>>> test_value("C72G C88U U92A")
-3.52
